# test.system: T1, growth differentiation factor 11 (GDF11) (UniProt O95390 299-407)
# T1 sequence (looked up): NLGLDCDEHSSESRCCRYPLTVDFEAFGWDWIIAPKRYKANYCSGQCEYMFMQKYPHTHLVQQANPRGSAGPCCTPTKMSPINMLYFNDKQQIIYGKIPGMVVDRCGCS
# assay.explanation: SPR (Biacore 3000), Fc fusion captured, ligand in solution
# Protocol: The GE Biacore 3000 was used to measure the kinetics of the interactions between the ActRIIB-Fc variants and the ligands Activin A, Activin B, growth differentiation factor 11 (GDF11), and BMP-9. […] All other ActRIIB-Fc variants were expressed by transient expression in HEK293 cells and purified from the conditioned media using Protein-A Sepharose chromatography. […] The data was analyzed using Scrubber2 by BioLogic™ Software to calculate the KD of each interaction (Table 4).
Measured pKd accompanies every entry in the list below.
In plain terms, pKd is the concentration in mol/L turned into minus its base-10 logarithm.

Here is how some binders turned out for pKd.
INSERT INTO results (binder, experimental_result) VALUES
  ('ActRIIB 2.11 variant (SEQ ID NO: 14)-Fc (Fc fusion, not shown: a dimerising Fc or GST, Engineered variant of the human ActRIIB extracellular portion; recombinant protein) GRGEAETRECLYYNANWELERTNQSGVERCEGEKDKRLHCYASWRNSSGSLEIVKKGCWLDDFNCYDRTDCVATKENPQVYFCCCEGNMCNERFTHLPEAGGPEVTYEPPPTAPT', 9.62),
  ('ActRIIB 2.12 variant (SEQ ID NO: 15)-Fc (Fc fusion, not shown: a dimerising Fc or GST, Engineered variant of the human ActRIIB extracellular portion; recombinant protein) GRGEAETRECLYYNANWELERTNQSGVERCEGEKDKRLHCYASWRNSSGSLEIVKKGCWLDDFNCYDRDTCVATKENPQVYFCCCEGNMCNERFTHLPEAGGPEVTYEPPPTAPT', 9.89),
  ('ActRIIB 2.06 variant (SEQ ID NO: 9)-Fc (Fc fusion, not shown: a dimerising Fc or GST, Engineered variant of the human ActRIIB extracellular portion; recombinant protein; also called ActRIIB variant 2.06-hFc) GRGEAETRECIYYNANWELERTNQSGLERCEGEQDKRLHCFASWKNSSGTIELVKQGCWLDDFNCYDRQECVAKKDSPEVYFCCCEGNFCNERFTHLPEAGGPEVTYEPPPTAPT', 10.57);

// next entry
Exercise: Which measured pKd value corresponds to ActRIIBΔ9 variant (SEQ ID NO: 3)-Fc (Fc fusion, not shown: a dimerising Fc or GST, Engineered variant of the human ActRIIB extracellular portion) GRGEAETRECIYYNANWELDRTNQSGLERCEGEQDKRLHCYASWRNSSGTIELVKKGCWLDDINCYDRQECVATKENPQVYFCCCEGNFCNERFTHLPEAGGPEVTYEPPPTAPT ?
Solution: 6.28
